- tested_on: UniProt Q9NWZ3
- assay_explanation: biochemical
pIC50: −log10 of the molar value.
quantity_kind: pIC50

* CC(C)Oc1nc2nc(C34CCC(C3)OC4)cn2cc1C(=O)Nc1cnn2cccnc12 (stereo not shown) [Example 565] | 9.30

a. CC(C)Oc1nc(C(=O)Nc2ccn(C)n2)cn2cc([C@@]34CC[C@@](C)(C3)OC4)nc12 (single isomer, unassigned) [Example 592]
b. CC(C)Oc1nc2nc(C34COC(C)(C3)C4)cn2cc1C(=O)Nc1cnn2cccc(F)c12 [Example 408]
c. CC(C)Oc1cc2nc(C3CC3)cn2cc1C(=O)Nc1cccc(CO)n1 [Example 483]
Task: Descending sort on pIC50 required. Give me the labels in the order the question wants.
Result: b, a, c
(b: 9.15, a: 8.47, c: 8.05)

----------
- tested_on: IRAK4 (Homo sapiens)
- assay_explanation: biochemical
- test_settings: IRAK4 Biochemical Assay (1 mM ATP, 2 h) IC50 (μM), 1 mM ATP, 2 h, 100 pM IRAK4
Structures can show the parent of a compound that is named as a salt.
quantity_kind: IC50 (µM)

These solved cases illustrate the format of a correct answer.
• CCOc1cc2nc(C3CN(CC(F)F)C3)cn2cc1C(=O)Nc1cccc(C(F)F)n1 [Example 90] = 0.0015
• COc1nc(C(=O)Nc2cccc(C(F)F)n2)cn2cc(C3CCOCC3)nc12 [Example 206, trifluoroacetate] = 0.0128
• Cn1ccc(NC(=O)c2cn3cc(C45COC(C)(C4)C5)nc3cc2OC2CC(C(F)F)C2)n1 (stereo not drawn) [Example 451] = 0.0065
• COc1cc2nc(C3CC34CCOCC4)cn2cc1C(=O)Nc1cccc(C(F)(F)F)n1 (stereo not drawn) [Example 40] = 0.0305
• CC(C)Oc1nc2nc(C34CCC(C)(CC3)OC4)cn2cc1C(=O)Nc1cccn(C)c1=O [Example 654] = 0.0005
• CC(C)Oc1nc2nc(C34COC(C)(C3)C4)cn2cc1C(=O)Nc1cnn(C)n1 [Example 365, trifluoroacetate] = 0.0128
• CCOc1nc(C(=O)Nc2cccc3ccnn23)cn2cc(C34CCC(C)(C3)OC4)nc12 (stereo not drawn) [Example 278, trifluoroacetate] = 0.0011
• CC(C)Oc1nc2nc(C34COC(C)(C3)C4)cn2cc1C(=O)Nc1cccc(C2CCOC2)n1 (stereo not drawn) [Example 359, trifluoroacetate] = 0.0009

1. COc1cc2nc(C3CCOC(C)(C)C3)cn2cc1C(=O)Nc1cccc(C(F)(F)F)n1 (stereo not drawn) [Example 43]
2. CC(C)Oc1nc2nc(C34COC(C)(C3)C4)cn2cc1C(=O)Nc1cccc(C(C)(F)F)n1 [Example 356, trifluoroacetate]
3. CCc1cccc(NC(=O)c2cn3cc(C45COC(CF)(C4)C5)nc3cc2OC)n1 [Example 58, trifluoroacetate]
4. CC(C)Oc1cc2nc(C34CCC(C)(C3)OC4)cn2cc1C(=O)Nc1ccn(C(F)F)n1 (stereo not drawn) [Example 504]
5. COc1cc2nc(C3CC4(CCOC4)C3)cn2cc1C(=O)Nc1cccc(C(F)(F)F)n1 (stereo not drawn) [Example 38]
Task: Order these by IC50, descending, and give the full ranking. Answer by listing the labels in the order asked for.
Result: 3, 5, 1, 4, 2
(3: 0.0105 µM, 5: 0.0048 µM, 1: 0.0032 µM, 4: 0.0018 µM, 2: 0.0011 µM)

A. CCOc1cc2nc(C3(OC)CC3)cn2cc1C(=O)Nc1cccc(C(F)F)n1 [Example 390, hydrochloride]
B. CC1(C)CC(Oc2cc3nc(C45COC(C)(C4)C5)cn3cc2C(=O)Nc2cccn(C(F)F)c2=O)CO1 (stereo not drawn) [Example 447]
Task: From the recorded data, which exceeds the other in IC50: A or B ? Which one? Tell me its label.
Result: A
(A: 0.009 µM, B: 0.0014 µM)

----------
- tested_on: IRAK4 (Homo sapiens)
- assay_explanation: biochemical
quantity_kind: IC50 (nM)

Example cases with answers are listed next.
• CC(C)Oc1cc2nc(C34CCC(C)(C3)OC4)cn2cc1C(=O)Nc1cccc(C(F)F)c1 (stereo not shown) = 0.5
• CC(C)Oc1nc(C(=O)Nc2cccc(C(F)F)n2)cn2cc([C@]34CC[C@](C)(C3)OC4)nc12 (single isomer, unassigned) = 2.4

P. Cn1ccc(NC(=O)c2cn3cc([C@]45CC[C@](C)(C4)OC5)nc3nc2OC2CCC2)n1 (single isomer, unassigned)
Q. CCn1cccc(NC(=O)c2cn3cc(C4CC4)nc3cc2OC(C)C)c1=O
R. CC(C)Oc1cc2nc(C34COC(C)(C3)C4)cn2cc1C(=O)Nc1ccnc(C(F)F)c1
S. CC(C)Oc1nc2nc([C@@]34CC[C@@](C)(C3)OC4)cn2cc1C(=O)Nc1cnn2cccnc12 (single isomer, unassigned)
Task: Write the entries in order, lowest recorded IC50 first. // list labels; follow requested order
Result: S, P, Q, R
(S: 0.4 nM, P: 4.5 nM, Q: 7.5 nM, R: 59.6 nM)

----------
- tested_on: IRAK4 (Homo sapiens)
- assay_explanation: biochemical
- test_settings: IRAK4 Biochemical Assay (1 mM ATP, 2 h) IC50 (μM), 1 mM ATP, 2 h, 100 pM IRAK4
Where a name gives a salt, the structure may show the parent alone.
quantity_kind: IC50 (µM)

* COc1cccc(NC(=O)c2cn3cc(C4CC4)nc3cc2OCC2CC3CCC2O3)n1 (stereo not drawn) | 0.0055
* CC(C)Oc1cc2nc(C34CCC(C)(C3)OC4)cn2cc1C(=O)Nc1cc(F)n(C)n1 (stereo not drawn) [Example 284, trifluoroacetate] | 0.0056
* Cc1cnc2c(NC(=O)c3cn4cc(C56COC(C)(C5)C6)nc4c(F)c3OC(C)C)cnn2c1 [Example 292, trifluoroacetate] | 0.0026

a. CC12CC(c3cn4cc(C(=O)Nc5cccc(C(F)F)n5)c(OC5CC5)nc4n3)(CO1)C2 [Example 312, trifluoroacetate]
b. COc1cc2nc(C3CC(OC)C3)cn2cc1C(=O)Nc1cccc(C(F)(F)F)n1 (stereo not drawn)
c. CC(C)Oc1nc2nc(C34COC(C)(C3)C4)cn2cc1C(=O)Nc1cccc(N(C)C)n1 [Example 357, trifluoroacetate]
d. CCc1cccc(NC(=O)c2cn3cc(C4CCOCC4)nc3cc2OC)n1
Task: Parameters: sort_field (IC50), sort_dir (desc). Give the order by naming the labels one after another as requested.
Result: b, d, a, c
(b: 0.0262 µM, d: 0.0137 µM, a: 0.0021 µM, c: 0.0003 µM)

I. COc1ccc2ncc(NC(=O)c3cn4cc(C56COC(C)(C5)C6)nc4nc3OC(C)C)n2n1 [Example 308, trifluoroacetate]
II. CC1(COc2cc3nc(C45COC(C)(C4)C5)cn3cc2C(=O)Nc2cccn(C(F)F)c2=O)CCOC1 (stereo not drawn)
Task: Lower value for measured IC50? Options: I , II Answer = label.
Result: I
(I: 0.002 µM, II: 0.0042 µM)

a. CC12CC(c3cn4cc(C(=O)Nc5cccc(C(F)F)n5)c(OC(F)F)cc4n3)(CO1)C2 [Example 333, trifluoroacetate]
b. CCCOc1nc(C(=O)Nc2cccnc2OC)cn2cc(C34CCC(C)(C3)OC4)nc12 (stereo not drawn) [Example 275, trifluoroacetate]
Task: Between a and b , which one shows the smaller IC50 number? Please reply using the label of the selected record.
Result: b

P. COc1cc2nc(C34COC(CF)(C3)C4)cn2cc1C(=O)Nc1ccccn1
Q. COc1ncc(F)cc1NC(=O)c1cn2cc(C34COC(C)(C3)C4)nc2nc1OC(C)C [Example 306, trifluoroacetate]
Task: Please let me know which one, P or Q , has a lower measured IC50 value. Indicate your choice by writing its label.
Result: Q

----------
- tested_on: IRAK4 (Homo sapiens, UniProt Q9NWZ3)
- Sequence (Q9NWZ3 whole entry): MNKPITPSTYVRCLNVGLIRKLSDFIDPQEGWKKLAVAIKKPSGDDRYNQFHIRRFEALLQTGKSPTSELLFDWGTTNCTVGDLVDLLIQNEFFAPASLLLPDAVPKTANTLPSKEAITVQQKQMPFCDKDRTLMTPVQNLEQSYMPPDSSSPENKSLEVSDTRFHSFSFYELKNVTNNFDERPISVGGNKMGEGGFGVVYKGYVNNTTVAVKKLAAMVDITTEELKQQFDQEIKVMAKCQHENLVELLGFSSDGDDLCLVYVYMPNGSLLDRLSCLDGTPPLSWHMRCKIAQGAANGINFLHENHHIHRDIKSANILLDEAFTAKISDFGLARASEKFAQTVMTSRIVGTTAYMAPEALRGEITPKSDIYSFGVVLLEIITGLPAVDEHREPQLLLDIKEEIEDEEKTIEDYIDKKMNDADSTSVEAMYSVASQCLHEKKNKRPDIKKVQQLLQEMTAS
- assay_explanation: biochemical
- test_settings: IRAK4 Biochemical Assay (1 mM ATP, 2 h) IC50 (μM), 1 mM ATP, 2 h, 100 pM IRAK4
Where a name gives a salt, the structure may show the parent alone.
quantity_kind: IC50 (µM)

Below: 5 molecules and their reported IC50.
* CC(C)Oc1cc2nc(C34COC(C)(C3)C4)cn2cc1C(=O)Nc1ccn(C)n1 [Example 297, trifluoroacetate] | 0.0048
* CC(C)Oc1nc2nc(C34COC(C)(C3)C4)cn2cc1C(=O)Nc1cccc(C(F)F)n1 [Example 218] | 0.0002
* CC(C)Oc1c(C(=O)Nc2cccc(C(F)(F)F)n2)cn2cc(C34COC(C)(C3)C4)nc2c1F [Example 230, trifluoroacetate] | 0.003
* CC(C)Oc1cc2nc(C(C)(F)F)cn2cc1C(=O)Nc1cccc(C(F)F)n1 [Example 98] | 0.0038
* COc1nc(C(=O)Nc2cccc(C(F)(F)F)n2)cn2cc(C3CCOCC3)nc12 [Example 76] | 0.0095

a. CC1(COc2cc3nc(C4CC4)cn3cc2C(=O)Nc2cccc(C(F)F)n2)CCOC1 (stereo not shown) [Example 475]
b. CC12CC(c3cn4cc(C(=O)Nc5cccn(C(F)F)c5=O)c(OC5CC(C(F)F)C5)cc4n3)(CO1)C2 (stereo not shown) [Example 450]
Task: Please indicate which entry, a or b , has the lower recorded IC50 value. Your choice should be expressed through its label.
Result: b

The reported measurements were obtained from patent US20230087118A1.
